# tested_on: recombinant PRL-2 (Homo sapiens, UniProt Q12974)
# Construct: 6xHis (N, cleaved yes); made in house; host or cells: E. coli One Shot BL21 Star
# Sequence (Q12974 1-167): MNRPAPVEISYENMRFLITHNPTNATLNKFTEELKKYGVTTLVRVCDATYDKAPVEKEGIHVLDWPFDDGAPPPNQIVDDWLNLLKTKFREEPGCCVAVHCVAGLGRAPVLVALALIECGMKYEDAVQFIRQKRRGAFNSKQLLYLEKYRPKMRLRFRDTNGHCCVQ
# assay_text: In vitro phosphatase assay (DiFMUP hydrolysis), PRL-2;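 note: PRL-2 activity read as DiFMUP hydrolysis after 20 min at room temperature with drug, enzyme first pre-reduced at 4 °C for 20 min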
# Format: biochemical
# assay_conditions: FDA-approved drug screen; compared to DMSO
readout_kind: % Phosphatase Activity (compared to DMSO) PRL-2 (%)
Note: unit % is implicit; provide only the numeric part.

For orientation, consider the following solved cases.
[
  {
    "molecule": "CCCc1cc(C(N)=S)ccn1 [Protionamide]",
    "assay_result": 101
  },
  {
    "molecule": "COc1ccc2[n-]c([S+]([O-])Cc3ncc(C)c(OC)c3C)nc2c1.COc1ccc2[n-]c([S+]([O-])Cc3ncc(C)c(OC)c3C)nc2c1.[Mg+2] (stereo not drawn)",
    "assay_result": 88
  },
  {
    "molecule": "CN(C)C/C=C/C(=O)Nc1cc2c(Nc3ccc(F)c(Cl)c3)ncnc2cc1O[C@H]1CCOC1.O=C(O)/C=C\\C(=O)O.O=C(O)/C=C\\C(=O)O [Afatinib (BIBW2992) Dimaleate]",
    "assay_result": 94
  },
  {
    "molecule": "C[N+]1(C)[C@@H]2CC[C@H]1C[C@@H](OC(=O)C(O)c1ccccc1)C2 (stereo partly drawn) [Homatropine Methylbromide]",
    "assay_result": 100
  },
  {
    "molecule": "CC(C)(Sc1cc(C(C)(C)C)c(O)c(C(C)(C)C)c1)Sc1cc(C(C)(C)C)c(O)c(C(C)(C)C)c1",
    "assay_result": 122
  }
]

Fill in reported % Phosphatase Activity (compared to DMSO) PRL-2 for this entry: CCOC(=O)N1CCC(=C2c3ccc(Cl)cc3CCc3cccnc32)CC1
90
